Tested on: ATP;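 note: ATP exposure 15 min at 22 °C before imaging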
Assay: switch fluorescence ratio, 500 uM ATP over buffer (Cy3 cluster intensity, sum of 5 cycles each) (fold (ratio)); higher = stronger signal-on switching upon ATP binding; sequences stand for … in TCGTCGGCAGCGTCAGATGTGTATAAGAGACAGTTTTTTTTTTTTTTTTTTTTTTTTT…TC
Settings: aptamer strand: ATP DNA aptamer (quencher-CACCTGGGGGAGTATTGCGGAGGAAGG + anchor), 100 nM annealed; ATP concentration: 500 uM
Measurement label: switch fluorescence ratio
Keep the answer to the number alone.

Completed entries (count: 2):
Sequence	switch fluorescence ratio
TTTGTTGAGC	1.44
GCTGCAGGGC	1.37

Query: Any idea what switch fluorescence ratio came out for GAAAAACCTT on ATP?
Result: 3.83

Query: Any idea what switch fluorescence ratio came out for CTGGGTGTTC on ATP?
Result: 1.05

Query: Any idea what switch fluorescence ratio came out for GCCTTACGTC on ATP?
Result: 1.05

Query: Any idea what switch fluorescence ratio came out for AAAGGTCTGG on ATP?
Result: 0.979

Query: Any idea what switch fluorescence ratio came out for AAGGTTAATA on ATP?
Result: 0.976

----------
Tested on: ATP;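 note: ATP exposure 15 min at 22 °C before imaging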
Experiment: switch fluorescence ratio, 500 uM ATP over buffer (Cy3 cluster intensity, sum of 5 cycles each) (fold (ratio)); higher = stronger signal-on switching upon ATP binding; sequences stand for … in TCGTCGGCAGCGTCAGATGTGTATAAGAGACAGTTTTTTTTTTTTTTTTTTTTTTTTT…TC
Conditions: aptamer strand: ATP DNA aptamer (quencher-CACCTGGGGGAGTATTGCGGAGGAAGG + anchor), 100 nM annealed; ATP concentration: 500 uM
Measurement label: switch fluorescence ratio
Keep the answer to the number alone.

Completed entries (count: 8):
Sequence	switch fluorescence ratio
AAATAGGGCT	1
TTTGTGATCA	0.998
GCTGAAGGAT	1
AGGGTTAGGT	1
GACTTAGTGC	1.05
CTTCTGAGGT	1.74
ATTCAGACCT	1.39
CCGGGAGGAT	0.987

Query: Tell me the measured switch fluorescence ratio of TTTTACGTCA , please.
Result: 1.21

Query: Tell me the measured switch fluorescence ratio of GTTTTGGCTT , please.
Result: 0.983

----------
Test system: ATP;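 note: ATP exposure 15 min at 22 °C before imaging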
Assay: switch fluorescence ratio, 500 uM ATP over buffer (Cy3 cluster intensity, sum of 5 cycles each) (fold (ratio)); higher = stronger signal-on switching upon ATP binding; sequences stand for … in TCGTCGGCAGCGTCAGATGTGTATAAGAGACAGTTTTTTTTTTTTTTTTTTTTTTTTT…TC
Settings: aptamer strand: ATP DNA aptamer (quencher-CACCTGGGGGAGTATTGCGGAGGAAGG + anchor), 100 nM annealed; ATP concentration: 500 uM
This section presents sequences with their documented switch fluorescence ratio values.

Completed entries (count: 3):
Sequence	switch fluorescence ratio
TTCGCGGGTT	0.97
TAGGTTAACT	0.956
TAAAAGCCTT	1.06

Query: Tell me the measured switch fluorescence ratio of AGGCTAGGAG , please.
Result: 0.994

Query: Tell me the measured switch fluorescence ratio of AGGCTTATTT , please.
Result: 1

----------
System: ATP;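 note: ATP exposure 15 min at 22 °C before imaging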
Assay: switch fluorescence ratio, 500 uM ATP over buffer (Cy3 cluster intensity, sum of 5 cycles each) (fold (ratio)); higher = stronger signal-on switching upon ATP binding; sequences stand for … in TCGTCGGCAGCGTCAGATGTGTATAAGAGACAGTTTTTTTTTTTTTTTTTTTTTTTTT…TC
Settings: aptamer strand: ATP DNA aptamer (quencher-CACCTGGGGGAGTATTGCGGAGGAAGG + anchor), 100 nM annealed; ATP concentration: 500 uM
This section presents sequences with their documented switch fluorescence ratio values.

Sequence	switch fluorescence ratio
TCAAACTTTA	1.03
GGCCGAGCTC	1.01
TTTTCATTTC	1.01

Query: Tell me the measured switch fluorescence ratio of TTTAATACGA , please.
Result: 1.04

Query: Tell me the measured switch fluorescence ratio of AGGAGGGGTT , please.
Result: 1.01

Query: Tell me the measured switch fluorescence ratio of TATTTGGTT , please.
Result: 0.991

Numbers sourced from the supplement of paper PMC10126150.
